Every entry's value here was drawn from patent US10618898B2.

Molecular target: Recombinant full-length human PDE2A protein (Homo sapiens)
Construct: Recombinant full-length human PDE2A protein; GST (N); host or cells: insect Sf9 cells (baculovirus)
Sequence (O00408 whole entry): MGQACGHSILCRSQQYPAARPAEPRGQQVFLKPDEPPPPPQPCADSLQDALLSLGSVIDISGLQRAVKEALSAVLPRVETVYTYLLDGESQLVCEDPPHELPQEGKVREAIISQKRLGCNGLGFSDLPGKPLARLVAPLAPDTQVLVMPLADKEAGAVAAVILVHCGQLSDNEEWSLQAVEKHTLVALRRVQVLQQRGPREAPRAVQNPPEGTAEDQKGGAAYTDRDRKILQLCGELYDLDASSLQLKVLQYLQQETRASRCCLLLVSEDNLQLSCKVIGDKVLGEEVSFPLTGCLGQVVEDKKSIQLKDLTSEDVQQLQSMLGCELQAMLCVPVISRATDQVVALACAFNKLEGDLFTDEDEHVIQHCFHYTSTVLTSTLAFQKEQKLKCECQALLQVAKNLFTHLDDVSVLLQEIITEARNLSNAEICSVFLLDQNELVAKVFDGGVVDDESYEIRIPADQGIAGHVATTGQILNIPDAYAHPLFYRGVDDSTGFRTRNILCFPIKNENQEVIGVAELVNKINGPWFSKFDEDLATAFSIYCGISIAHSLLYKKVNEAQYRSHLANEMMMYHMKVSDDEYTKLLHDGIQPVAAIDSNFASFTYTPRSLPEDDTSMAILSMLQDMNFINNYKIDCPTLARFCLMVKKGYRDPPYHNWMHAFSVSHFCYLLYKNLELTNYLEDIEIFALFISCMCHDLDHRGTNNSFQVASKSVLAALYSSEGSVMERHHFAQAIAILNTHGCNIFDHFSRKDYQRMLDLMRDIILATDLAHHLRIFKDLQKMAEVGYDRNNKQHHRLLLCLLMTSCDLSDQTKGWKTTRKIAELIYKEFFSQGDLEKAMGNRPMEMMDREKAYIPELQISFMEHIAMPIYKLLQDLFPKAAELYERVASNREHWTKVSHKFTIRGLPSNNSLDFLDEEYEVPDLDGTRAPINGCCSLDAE
Assay: In vitro PDE2 phosphodiesterase inhibitory activity (fluorescence polarization, Transcreener AMP2/GMP2)
Assay type: biochemical
pIC50: −log10 of the molar value.
measured_quantity: pIC50

For the molecule `Cn1cnc2c1c(=O)n(CC1(C)COC1)c(=O)n2C` , report pIC50.
4.30 to 5.00
